Overview of reported EC50 across a group of compounds:
Measurement notes: Luminescence Cell-Based Dose Confirmation HTS to Identify Activators of 5'UTR Stem-Loop Driven Alpha-Synuclein mRNA Translation in H4 Neuroglioblastoma Cells. [Related pubchem assays: 1829 (Project Summary), 1814 (Primary HTS)]
Type: functional
Activity calls are given as the source filed them.

Below are worked cases with known answers.
- Compound: "CCOc1ccc(Nc2ncnc3c2nnn3Cc2ccccc2)cc1"
  Metric name: "EC50"
  Experimental result: "17.7 µM (active)"
- Compound: "O=C(Sc1cccc2cccnc12)c1ccccc1Br"
  Metric name: "EC50"
  Experimental result: "> 120 µM (not active)"

Record request: EC50 value, item CC(C)N1C(=O)CN(C2CCCCCC2)C(=O)C1c1ccccc1F (stereo not drawn)
10.8 µM (active)

====

Overview of recorded IC50 for various compounds
Assay target: Carboxy-terminal domain RNA polymerase II polypeptide A small phosphatase 1 (Homo sapiens, UniProt Q9GZU7)
Sequence (Q9GZU7 whole entry, the tested form may be a part): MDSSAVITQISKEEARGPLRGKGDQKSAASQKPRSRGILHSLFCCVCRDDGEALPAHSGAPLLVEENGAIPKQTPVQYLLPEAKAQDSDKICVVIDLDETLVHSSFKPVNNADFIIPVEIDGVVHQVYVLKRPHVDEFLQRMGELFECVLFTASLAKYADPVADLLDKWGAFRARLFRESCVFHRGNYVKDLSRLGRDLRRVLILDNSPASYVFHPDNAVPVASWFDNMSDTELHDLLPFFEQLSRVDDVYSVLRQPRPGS
Measurement notes: inhibitors of CTDSP1, concentration-response testing, biochemical assay, absorbance-based, actives from ultra-high-throughput screening (AID 540297)
Assay type: functional
Calls of active or inactive are those of the source.

- Record smiles: "Cc1ccnc(NS(=O)(=O)c2ccc(NC(=O)Cc3cccs3)cc2)n1"
  Metric name: "IC50"
  Experimental result: "4.2 µM (active)"
- Record smiles: "O=C(Nc1ccc2nn(-c3ccccc3)nc2c1)c1ccc(Br)o1"
  Metric name: "IC50"
  Experimental result: "3.62 µM (active)"

I'd like to know its IC50. The compound in question is Cc1nc2c(c(=O)n1CCC1=CCCCC1)c1nc3ccccc3nc1n2/N=C/c1ccco1
10.1 µM (active)

Looking for the measured IC50 of CN(C)/C=C/C=C1C(=O)CCCC1=O , can you help?
7.28 µM (active)

Give its IC50 value. Item: Cc1ccc(N2C(=O)NC(=O)/C(=C/c3ccc(-c4ccc(C(=O)O)c(Cl)c4)o3)C2=O)cc1
5.49 µM (active)

Entry under review: O=C(N/N=C/c1ccc(OCCCF)cc1)c1ccc(C(F)(F)F)cc1 . Reported IC50?
13.2 µM (active)

Recorded IC50 of c1ccc(-c2cc(-c3nn4c(-c5ccco5)nnc4s3)c3ccccc3n2)cc1 , please.
16.6 µM (active)

====

Measurement notes: cytotoxicity toward DRD oncogenic fibroblasts, dose response, cell-based, non-viral oncogenic, luminescence (AID 1934)
Format: functional
Condition parameters: Homo sapiens
Activity calls are given as the source filed them.
Metric name: EC50

- Record smiles: "COc1c(/C=N/Nc2ccc([N+](=O)[O-])cc2[N+](=O)[O-])c(C)nn1-c1ccccc1"
  EC50: "15.8 µM (active)"
- Record smiles: "O=C(Sc1cccc2cccnc12)c1ccccc1Br"
  EC50: "2.48 µM (active)"
- Record smiles: "COc1ccc(-[n+]2c(-c3ccccc3)cc(-c3ccccc3)cc2-c2ccccc2)cc1.[O-][Cl+3]([O-])([O-])[O-]"
  EC50: "14.1 µM (active)"

Now for the compound whose EC50 we want.
What value of measured EC50 is listed for CCCCCCCCCC[n+]1cccc2c3ccccc3ccc21 ?
8.72 µM (active)

====

Assay target: Corticotropin-releasing factor receptor 2/Corticotropin-releasing factor-binding protein (Homo sapiens, UniProt P24387+Q13324)
Sequence (Q13324 whole entry): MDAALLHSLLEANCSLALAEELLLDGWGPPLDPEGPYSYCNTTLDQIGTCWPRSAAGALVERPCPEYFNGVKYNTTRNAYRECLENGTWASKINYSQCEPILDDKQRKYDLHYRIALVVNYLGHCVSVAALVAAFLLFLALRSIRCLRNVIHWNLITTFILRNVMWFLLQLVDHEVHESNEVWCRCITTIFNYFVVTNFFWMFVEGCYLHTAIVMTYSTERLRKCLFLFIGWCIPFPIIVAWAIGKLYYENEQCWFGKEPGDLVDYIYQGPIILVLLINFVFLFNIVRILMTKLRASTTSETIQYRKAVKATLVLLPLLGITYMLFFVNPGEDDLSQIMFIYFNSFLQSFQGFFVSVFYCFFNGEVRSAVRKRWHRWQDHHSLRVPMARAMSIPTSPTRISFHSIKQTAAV
Sequence (P24387 whole entry): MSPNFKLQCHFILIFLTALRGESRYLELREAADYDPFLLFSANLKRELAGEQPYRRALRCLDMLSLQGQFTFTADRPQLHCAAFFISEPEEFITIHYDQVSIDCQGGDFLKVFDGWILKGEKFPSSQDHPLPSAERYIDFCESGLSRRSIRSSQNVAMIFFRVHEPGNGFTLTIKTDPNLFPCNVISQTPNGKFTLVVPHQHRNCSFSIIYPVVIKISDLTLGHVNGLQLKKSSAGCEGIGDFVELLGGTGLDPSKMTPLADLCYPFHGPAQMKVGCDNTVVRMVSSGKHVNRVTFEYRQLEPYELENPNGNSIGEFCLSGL
Measurement notes: activators of CRF receptor 2 with binding protein – uHTS hits, confirmation (AID 602473)
Type: functional
Condition parameters: read-out: EC50_Mean
Activity calls are given as the source filed them.
Metric name: EC50

Examples with their reported EC50 follow.
- Molecule: "CCOc1ccc(N/N=C2\\C(=O)Nn3c2nc2c(c3=O)CCCC2)cc1"
  Metric name: "EC50"
  Experimental result: "> 53 µM (inactive)"
- Molecule: "CN(C)c1ccc(C=C2C(=O)OC3(CCCC3)OC2=O)cc1"
  Metric name: "EC50"
  Experimental result: "44.2 µM (active)"
- Molecule: "CN(C(=O)c1ccc(S(=O)(=O)NC2CCCC2)cc1)C1CCCCC1"
  Metric name: "EC50"
  Experimental result: "> 53 µM (inactive)"
- Molecule: "CC(=O)Nc1cccc(OC(=O)c2ccoc2C)c1"
  Metric name: "EC50"
  Experimental result: "4.9 µM (active)"
- Molecule: "COc1ccc(N/C=C2/C(=O)N(c3cccc(C)n3)C(=O)c3ccccc32)c(OC)c1"
  Metric name: "EC50"
  Experimental result: "8.64 µM (active)"
- Molecule: "CCOC(=O)C1CCN(c2nc3cc(OC)ccc3cc2C#N)CC1"
  Metric name: "EC50"
  Experimental result: "> 53 µM (inactive)"

Please report the recorded EC50 for COCC(=O)N(C)[C@H]1C[C@H]2c3cc(N4CCN(C)CC4)ccc3CCN2C(=O)[C@H]1[C@H](C)O .
> 53 µM (inactive)

Please report the recorded EC50 for O=C(CSc1ccc(-c2ccncc2)nn1)N1CCN(c2ccccc2)CC1 .
> 53 µM (inactive)

====

Assay target: Albumin (Bos taurus, UniProt P02769)
Sequence (P02769 whole entry): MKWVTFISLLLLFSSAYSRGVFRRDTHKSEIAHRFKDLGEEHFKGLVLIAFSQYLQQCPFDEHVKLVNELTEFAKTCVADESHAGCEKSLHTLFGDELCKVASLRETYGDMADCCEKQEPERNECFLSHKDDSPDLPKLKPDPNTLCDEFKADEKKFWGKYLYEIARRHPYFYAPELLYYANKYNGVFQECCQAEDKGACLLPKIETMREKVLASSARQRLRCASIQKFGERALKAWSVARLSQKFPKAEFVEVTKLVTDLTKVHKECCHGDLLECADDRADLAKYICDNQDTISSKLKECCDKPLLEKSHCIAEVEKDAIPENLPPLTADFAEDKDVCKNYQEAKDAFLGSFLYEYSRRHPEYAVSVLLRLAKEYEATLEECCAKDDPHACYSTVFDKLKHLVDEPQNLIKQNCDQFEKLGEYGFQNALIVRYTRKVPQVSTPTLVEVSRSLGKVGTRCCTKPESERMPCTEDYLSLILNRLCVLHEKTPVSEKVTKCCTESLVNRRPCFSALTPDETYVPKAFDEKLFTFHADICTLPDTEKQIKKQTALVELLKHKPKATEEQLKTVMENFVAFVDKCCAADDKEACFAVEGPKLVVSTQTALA
Measurement notes: Counterscreen for inhibitors of T-cell receptor (TCR)-CD3 interaction: Fluorescence-based biochemical high throughput dose response assay to identify inhibitors of T-cell receptor (TCR)-CD3 interaction using a TAMRA-labeled BSA probe.
Type: functional
Active and inactive are the calls of the source.
# IC50 values compiled below

- Record smiles: "COC(=O)Nc1ccc(S(=O)(=O)NNC(=O)c2c(O)c3ccccc3n(C)c2=O)cc1"
  Metric name: "IC50"
  Experimental result: "> 94.1 µM (inactive)"
- Record smiles: "O=C1NC(=O)N(Cc2ccco2)C(=O)/C1=C/NNC(=O)c1ccccc1O"
  Metric name: "IC50"
  Experimental result: "> 94 µM (inactive)"
- Record smiles: "C/C(=N\\NC(=O)c1nnn(-c2nonc2N)c1-c1ccccc1)c1ccccc1O"
  Metric name: "IC50"
  Experimental result: "> 94.1 µM (inactive)"

Reported IC50, molecule COc1cc(O)c(/C=N/NC(=O)c2ccncc2)c(OC)c1[N+](=O)[O-] : ____
> 94.1 µM (inactive)

Value lookup for IC50; key = O=C1C(=Cc2cn(-c3ccccc3)nc2-c2ccc(OCc3ccccc3)cc2)SC(=S)N1CCS(=O)(=O)O
> 94.2 µM (inactive)

====

Assay target: Cytochrome P450 3A4 (Homo sapiens);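 note: CYP3A4 tested as one member of a cytochrome P450 panel screen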
Sequence (P08684 whole entry): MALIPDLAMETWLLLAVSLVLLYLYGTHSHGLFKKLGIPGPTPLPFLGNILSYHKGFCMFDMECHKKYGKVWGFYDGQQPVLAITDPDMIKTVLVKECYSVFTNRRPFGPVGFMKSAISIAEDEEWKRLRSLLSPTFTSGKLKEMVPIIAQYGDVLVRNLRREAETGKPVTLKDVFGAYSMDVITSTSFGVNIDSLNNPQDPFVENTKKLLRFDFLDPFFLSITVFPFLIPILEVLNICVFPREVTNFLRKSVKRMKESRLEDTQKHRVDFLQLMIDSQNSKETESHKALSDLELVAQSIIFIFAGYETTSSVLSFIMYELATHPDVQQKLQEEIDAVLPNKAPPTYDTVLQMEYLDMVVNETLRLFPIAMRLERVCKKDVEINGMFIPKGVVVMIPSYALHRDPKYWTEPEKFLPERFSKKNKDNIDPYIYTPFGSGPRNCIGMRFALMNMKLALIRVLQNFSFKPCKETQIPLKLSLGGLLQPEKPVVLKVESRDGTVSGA
AC50 values for the compounds below.

- Compound: "CCOc1ccc(-n2cc(C(=O)NCc3ccco3)c3cc(OC)c(OC)cc3c2=O)cc1"
  Assay target: "Cytochrome P450 3A4 (Homo sapiens)"
  Metric name: "AC50"
  Experimental result: "22.4 µM (inconclusive)"
- Compound: "CN(C)c1ncc2nc(-c3ccc(F)cc3)c(=O)n(Cc3cccs3)c2n1"
  Assay target: "Cytochrome P450 3A4 (Homo sapiens)"
  Metric name: "AC50"
  Experimental result: "25.1 µM (inconclusive)"
- Compound: "Cc1ccc(-n2nc(C)c3c2OC(N)=C(C#N)C3c2ccco2)cc1 (stereo unspecified)"
  Assay target: "Cytochrome P450 3A4 (Homo sapiens)"
  Metric name: "AC50"
  Experimental result: "17.8 µM (inconclusive)"
- Compound: "COc1ccc(C(=O)N2CCC3(CCCN(Cc4nccs4)C3)CC2)cc1"
  Assay target: "Cytochrome P450 3A4 (Homo sapiens)"
  Metric name: "AC50"
  Experimental result: "7.94 µM (inconclusive)"

What reported AC50 corresponds to Cc1nn(CC(O)COc2ccc3c(c2)CCC3)c(C)c1Br (stereo unspecified) on Cytochrome P450 3A4 (Homo sapiens)?
15.8 µM (inconclusive)

So what AC50 did O=C(COc1ccc(Br)cc1)N1CCC(c2ccccc2)C1 (stereo unspecified) get with Cytochrome P450 3A4 (Homo sapiens)?
28.2 µM (inconclusive)

====

# key: entry, value: EC50
Assay target: Peroxisome proliferator-activated receptor gamma/Nuclear receptor coactivator 2 (Homo sapiens);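 note: agonist potency for raising coactivator recruitment to the receptor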
Sequence (P37231 whole entry): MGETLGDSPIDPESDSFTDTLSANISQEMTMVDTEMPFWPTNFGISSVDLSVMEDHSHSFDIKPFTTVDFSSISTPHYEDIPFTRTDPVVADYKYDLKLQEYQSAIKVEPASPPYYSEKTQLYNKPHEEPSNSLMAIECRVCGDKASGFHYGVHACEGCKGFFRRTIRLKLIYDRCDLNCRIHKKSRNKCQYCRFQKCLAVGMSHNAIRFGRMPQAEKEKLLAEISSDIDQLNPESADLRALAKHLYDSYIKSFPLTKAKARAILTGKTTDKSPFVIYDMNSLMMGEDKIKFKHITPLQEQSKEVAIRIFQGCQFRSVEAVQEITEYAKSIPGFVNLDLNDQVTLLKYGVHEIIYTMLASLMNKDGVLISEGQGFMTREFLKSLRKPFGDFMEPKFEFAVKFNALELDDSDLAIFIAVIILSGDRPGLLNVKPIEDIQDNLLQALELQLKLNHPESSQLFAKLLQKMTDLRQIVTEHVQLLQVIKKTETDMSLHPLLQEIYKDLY
Sequence (Q15596 whole entry, further chain): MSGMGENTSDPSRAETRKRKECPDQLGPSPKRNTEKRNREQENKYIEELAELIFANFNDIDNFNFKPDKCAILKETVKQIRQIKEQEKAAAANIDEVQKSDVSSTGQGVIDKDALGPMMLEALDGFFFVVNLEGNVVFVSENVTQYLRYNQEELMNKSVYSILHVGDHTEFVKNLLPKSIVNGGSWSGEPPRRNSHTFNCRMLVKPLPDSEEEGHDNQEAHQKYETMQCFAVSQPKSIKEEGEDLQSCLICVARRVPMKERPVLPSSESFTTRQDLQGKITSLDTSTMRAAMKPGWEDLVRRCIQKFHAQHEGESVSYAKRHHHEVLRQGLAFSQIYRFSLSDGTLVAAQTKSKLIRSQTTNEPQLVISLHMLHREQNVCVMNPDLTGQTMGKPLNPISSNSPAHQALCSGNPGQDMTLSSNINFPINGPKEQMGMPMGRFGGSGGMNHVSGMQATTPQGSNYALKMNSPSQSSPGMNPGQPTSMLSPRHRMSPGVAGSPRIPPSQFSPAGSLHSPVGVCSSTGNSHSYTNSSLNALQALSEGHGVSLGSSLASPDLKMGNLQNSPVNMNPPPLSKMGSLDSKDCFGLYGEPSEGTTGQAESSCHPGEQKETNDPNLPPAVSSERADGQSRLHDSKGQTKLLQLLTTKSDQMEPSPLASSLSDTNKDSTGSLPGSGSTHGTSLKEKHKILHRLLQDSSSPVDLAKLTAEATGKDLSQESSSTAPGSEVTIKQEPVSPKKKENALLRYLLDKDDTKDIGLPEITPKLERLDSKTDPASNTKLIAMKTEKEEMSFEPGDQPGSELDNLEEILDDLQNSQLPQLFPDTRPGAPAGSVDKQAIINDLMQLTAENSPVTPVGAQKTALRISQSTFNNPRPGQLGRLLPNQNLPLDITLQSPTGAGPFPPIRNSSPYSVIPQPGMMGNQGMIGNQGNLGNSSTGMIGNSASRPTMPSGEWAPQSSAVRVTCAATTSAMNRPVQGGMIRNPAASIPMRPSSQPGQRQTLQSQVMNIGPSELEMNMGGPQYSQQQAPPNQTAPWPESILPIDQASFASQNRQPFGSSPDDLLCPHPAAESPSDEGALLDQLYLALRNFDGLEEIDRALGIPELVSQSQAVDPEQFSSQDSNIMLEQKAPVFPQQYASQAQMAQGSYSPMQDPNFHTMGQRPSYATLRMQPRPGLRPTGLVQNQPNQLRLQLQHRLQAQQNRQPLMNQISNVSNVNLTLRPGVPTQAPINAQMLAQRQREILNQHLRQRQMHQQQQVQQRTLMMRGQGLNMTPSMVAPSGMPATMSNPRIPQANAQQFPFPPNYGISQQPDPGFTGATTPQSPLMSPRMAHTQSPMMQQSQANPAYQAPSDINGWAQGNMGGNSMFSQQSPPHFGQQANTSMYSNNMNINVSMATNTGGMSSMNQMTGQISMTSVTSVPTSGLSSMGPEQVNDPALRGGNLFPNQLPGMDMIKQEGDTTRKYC
Type: functional

Example cases with answers are listed next.
- Record smiles: "CCOC(=O)c1s/c(=N\\C(=O)c2cccc(OC)c2)n(C)c1C"
  Metric name: "EC50"
  Experimental result: "10.5 µM (not active)"
- Record smiles: "Fc1ccccc1CSc1nc2ncc(Br)cc2[nH]1"
  Metric name: "EC50"
  Experimental result: "24.2 µM (not active)"
- Record smiles: "CCN(CC)CCN(Cc1cc2cc3c(cc2[nH]c1=O)OCCO3)C(=O)NC1CCCCC1"
  Metric name: "EC50"
  Experimental result: "> 79.4 µM (not active)"

Requested read-out: EC50. Entry: CCOC(=O)c1sc(NC(=O)CSc2nnnn2-c2ccc(C)c(C)c2)nc1C
77.4 µM (not active)

====

Recorded AC50, one value per entry.
Tested on: INS1
Measurement notes: beta cell apoptosis inhibitors, cytokine rescue, dose response, luminescence, retest (AID 449756);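 note: cell death triggered by IL-1 beta plus TNF-alpha plus IFN-gamma mixture; protective hits raise ATP signal compared with cytokine alone wells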
Assay type: functional, cell-based
Condition parameters: Rattus norvegicus
Active and inactive are the calls of the source.

- Record smiles: "Cc1ccc(Nc2cc(C)nc(NCc3ccccc3)n2)cc1"
  Metric name: "AC50"
  Experimental result: "3.94 µM (active)"
- Record smiles: "COc1ccc(C2=Nn3c([n+](C)c4ccccc43)SC2)cc1"
  Metric name: "AC50"
  Experimental result: "1.54 µM (active)"
- Record smiles: "COc1ccc(-c2nc(-c3ccccn3)no2)cc1"
  Metric name: "AC50"
  Experimental result: "3.81 µM (active)"
- Record smiles: "CCCCC[n+]1cccc2c3ccccc3ccc21"
  Metric name: "AC50"
  Experimental result: "4.56 µM (active)"
- Record smiles: "CN1/C(=C\\C=C2/SC(=S)NC2=O)C(C)(C)c2ccccc21"
  Metric name: "AC50"
  Experimental result: "2.87 µM (active)"

Shift focus to the following entry.
Need AC50, item O=C(N/N=C/c1cc(Br)c(Br)s1)c1ccncc1
3.31 µM (active)

Reference for the values: ChEMBL document CHEMBL1201862
